biological target: SF9 affinity purified rat farnesyl protein transferase (Rattus norvegicus, UniProt Q02293+Q04631); construct: made in house; host or cells: Sf9 insect cells (baculovirus system inferred from b7); assay: PFT inhibitory activity (radiolabeled farnesyl pyrophosphate, streptavidin bead assay); format: biochemical; details: HEPES buffer pH 7.4, without 5 mM potassium phosphate; read-out: IC50 (μM) Hepes
Recorded Metric: IC50 (µM)

a: CC(CNC(=O)CN(Cc1ccc(N(C)C)cc1)C(=O)[C@H](Cc1c[nH]cn1)NC(=O)OCc1ccccc1)c1ccccc1 (stereo partly drawn) [Example 48]
b: CC(C)(CNC(=O)CN(Cc1ccccc1OCc1ccncc1)C(=O)[C@H](Cc1c[nH]cn1)NC(=O)OCc1ccccc1)c1ccccc1 [Example 60]
c: Cc1ccc(CN(CC(=O)NCC(C)c2ccccc2)C(=O)[C@H](Cc2c[nH]cn2)NC(=O)OCc2ccccc2)cc1 (stereo partly drawn) [Example 19]
// query Arrange by IC50, high to low. Give me the labels in the order the question wants.
// result c, a, b
